- experiment.notes: chemical genetic growth profiling, strain panel (AID 1159580);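 note: tested at 20 µM; growth read once vehicle control cultures reached saturation at 30 °C; lower values mean less growth of the strain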
- test.parameters: S. cerevisiae deletion strains, growth OD, locus YKL160W, strain elf1
About 2,000 (36%) of roughly 5,500 compounds were called active. About 18% were inconclusive and are not listed. Cut-off read from the data, not from the text of the source: active = normalized growth mostly below about 0.91 (no sharp cut-off); inconclusive = no clear call, values can overlap the other calls; inactive = mostly above about 0.92. Some of the results follow.
Please state which outcome applies, choosing from active, inactive

Query: Name the outcome recorded for CO[C@H]1[C@@H](O)[C@@H](C)O[C@H](O[C@H]2CCC3(C)C4CCC5(C)[C@@H](C6=CC(=O)OC6)CC[C@]5(O)[C@@H]4CC[C@]3(O)C2)[C@@H]1O (stereo partly drawn) in the assay.
Response: inactive

Query: Each compound tested received a call. Report the one for CCC(=O)NCC[C@@H]1CCc2ccc3c(c21)CCO3 .
Response: inactive

Query: Please let me know the test result on file for NCC(O)CC(=O)O (stereo not drawn) .
Response: inactive

Query: Record request — test call for COC(=O)C[C@H]1C(C)(C)[C@@H](O)[C@@H]2CC3=C4CC(O)O[C@@H](c5ccoc5)[C@]4(C)CCC3[C@@]1(C)C2=O (stereo partly drawn)
Response: inactive

Query: Check the results log: what was the call for Cc1cc(N)c2ccccc2[n+]1CCCCCCCCCC[n+]1c(C)cc(N)c2ccccc21 ?
Response: active

Query: Dear all, I need the recorded test outcome for COP(N)(=O)SC (stereo not drawn) , thank you.
Response: inactive

Query: Entry O=C(Oc1ccccc1C(=O)O)c1ccccc1O : call = ?
Response: inactive

Query: Outcome logged for NCCCC(O)(P(=O)(O)O)P(=O)(O)O in this assay:
Response: inactive

Query: Just curious, what result did CC(C)Nc1nc(Cl)nc(NC(C)C)n1 get here?
Response: inactive

Query: Which outcome did this test record for the compound COc1ccccc1N1CCN(CCCNc2cc(=O)n(C)c(=O)n2C)CC1 ?
Response: inactive

Query: Hi, sorry to bother you, what did the test record for CCn1nc(C(=O)O)c(=O)c2cc3c(cc21)OCO3 ?
Response: inactive

Query: Any idea what this test logged for O=C(CCCN1CCN(c2ccccn2)CC1)c1ccc(F)cc1 ?
Response: active

Query: Identify the outcome logged in this assay for the compound shown: CN(C)CC[C@H](c1ccc(Cl)cc1)c1ccccn1
Response: inactive

Query: How did this test come out for C/C=C(\C)C(=O)O[C@@H]1c2c(ccc3ccc(=O)oc23)OC(C)(C)[C@@H]1OC(C)=O ?
Response: inactive

Query: Recorded test outcome, item CC(=O)O[C@@H]1c2c(ccc3ccc(=O)oc23)OC(C)(C)[C@@H]1OC(=O)CC(C)C
Response: inactive

Query: Could you kindly confirm the outcome this assay logged for CC1(C)Oc2ccc3ccc(=O)oc3c2CC1O (stereo not drawn) ?
Response: inactive

Query: Dear all, I need the recorded test outcome for Cc1ccc(-c2nc3ccc(C)cn3c2CC(=O)N(C)C)cc1 , thank you.
Response: inactive

Query: I would be grateful if you could indicate the recorded call for COC(=O)[C@H]1[C@H]2C[C@H]3c4[nH]c5cc(OC)ccc5c4CCN3C[C@H]2C[C@@H](OC(=O)c2cc(OC)c(OC)c(OC)c2)[C@@H]1OC .
Response: inactive

Query: Which result was noted for this compound in the test: CC(C)(C)NCC(O)COc1cccc2c1C[C@H](O)[C@H](O)C2 (stereo partly drawn)
Response: inactive

Query: GET /call?item= N#Cc1c(Cl)cccc1Cl returns the recorded outcome of this test.
Response: inactive

Query: Test call for this compound, please: COc1nc(NC(C)C)nc(NC(C)C)n1
Response: inactive

Query: Hi team, can someone confirm the assay call for NCCCN ?
Response: inactive

Query: Could you check what this test reported for Oc1ccc2c3c1OC1[C@@H](O)CC[C@@]4(O)[C@@H](C2)N(CC2CCC2)CC[C@]314 (stereo partly drawn) ?
Response: inactive
